meta.source: patent US20070128217A1

Quick reference: Binding of serum 1b to linear peptide (PEPSCAN-ELISA) of the listed items.
# Test system: antibodies in sera from SARS patients (sera 1a, 1b, 2, 6, 37, 62, London, SARS-yellow, SARS-green)
# Type: binding, human
Lab note: jot the number down without any unit.

Completed entries (count: 5):
| sequenceInput | endpointResult |
| --- | --- |
| PGSSRGNSPARMASG | 0.2 |
| SRGGSQASSRSSSRS | 0.1 |
| GNFGDQDLIRQGTDY | 0.2 |
| KGQQQQGQTVTKKSA | 0.1 |
| RGNSPARMASGGGET | 0.1 |

Summary for this sequence, YAEGSRGGSQASSRS : Binding of serum 1b to linear peptide (PEPSCAN-ELISA) is 0.1

Summary for this sequence, GNSPARMASGGGETA : Binding of serum 1b to linear peptide (PEPSCAN-ELISA) is 0.1

----------
# System: antibodies in sera from SARS patients (sera 1a, 1b, 2, 6, 37, 62, London, SARS-yellow, SARS-green)
# Type: binding, human
# Parameters: unit not given here
Quick reference: Binding of serum 37 to looped/cyclic peptide (PEPSCAN-ELISA) of the listed items.
Lab note: jot the number down without any unit.

| sequenceInput | endpointResult |
| --- | --- |
| QCINACRIIMRCWLC | 0.6 |

--- query ---
Summary for this sequence, LYLYALIYFLQCINA : Binding of serum 37 to looped/cyclic peptide (PEPSCAN-ELISA) is 0.4

----------
# System: antibodies in sera from SARS patients (sera 1a, 1b, 2, 6, 37, 62, London, SARS-yellow, SARS-green)
# Format: binding, human
# Parameters: unit not given here
Binding of serum 1b to looped/cyclic peptides of protein N of SARS-CoV Urbani less than 0.2 is 1; Binding of serum 1b to looped/cyclic peptides of protein N of SARS-CoV Urbani greater than or equal to 0.2 is 0.

Some solved cases for reference:
| sequenceInput | cat |
| --- | --- |
| QRSAPRITFGGPTDS | 0 |
| TKKSAAEASKKPRQK | 1 |
| KKPRQKRTATKQYNV | 1 |
| KHWPQIAQFAPSASA | 1 |
| GTRNPNNNAATVLQL | 0 |

Query block: Threshold test, Binding of serum 1b to looped/cyclic peptides of protein N of SARS-CoV Urbani < 0.2: FSRQLQNSMSGASAD
Result block: 1

Query block: Threshold test, Binding of serum 1b to looped/cyclic peptides of protein N of SARS-CoV Urbani < 0.2: VTPSGTWLTYHGAIK
Result block: 1

Query block: Threshold test, Binding of serum 1b to looped/cyclic peptides of protein N of SARS-CoV Urbani < 0.2: FTALTQHGKEELRFP
Result block: 1

Query block: Threshold test, Binding of serum 1b to looped/cyclic peptides of protein N of SARS-CoV Urbani < 0.2: DNVILLNKHIDAYKT
Result block: 0

Query block: Threshold test, Binding of serum 1b to looped/cyclic peptides of protein N of SARS-CoV Urbani < 0.2: NNQNGGRNGARPKQR
Result block: 1

----------
# Test system: control sera (pooled serum of ten healthy LUMC hospital workers; commercial negative donor pooled serum from the Dutch bloodbank)
# Type: binding, human
# Design: unit not given here
Binding of Control serum Blood-bank to linear peptides less than 0.6 is t; Binding of Control serum Blood-bank to linear peptides greater than or equal to 0.6 is f.

Some solved cases for reference:
| sequenceInput | cat |
| --- | --- |
| FTLGSITAQPVKIDN | t |
| VKDYVVVHGYFTEVY | t |
| LHKLLQTLVLKMLHS | t |
| LHSSSLTSLLKTHRM | f |
| NPAMDPIYDEPTTTT | t |

Query block: Threshold test, Binding of Control serum Blood-bank to linear peptides < 0.6: DNKFALTCTSTHFAF
Result block: f

Query block: Threshold test, Binding of Control serum Blood-bank to linear peptides < 0.6: ALVFLILCFTIKRKT
Result block: f

----------
Quick reference: Binding of antibody 03-018 to looped/cyclic peptides of the N protein of SARS-CoV Urbani of the listed items.
# Test system: recombinant human anti-SARS-CoV antibody 03-018
# Format: binding
# Parameters: unit not given here
Lab note: jot the number down without any unit.

Completed entries (count: 5):
| sequenceInput | studyTarget | endpointResult |
| --- | --- | --- |
| GKMKELSPRWYFYYL | recombinant human anti-SARS-CoV antibody 03-018 | 0.3 |
| SRIGMEVTPSGTWLT | recombinant human anti-SARS-CoV antibody 03-018 | 0.2 |
| KPRQKRTATKQYNVT | recombinant human anti-SARS-CoV antibody 03-018 | 0.2 |
| KKTDEAQPLPQRQKK | recombinant human anti-SARS-CoV antibody 03-018 | 0.2 |
| SKVSGKGQQQQGQTV | recombinant human anti-SARS-CoV antibody 03-018 | 0.2 |

Summary for this sequence, DDFSRQLQNSMSGAS : Binding of antibody 03-018 to looped/cyclic peptides of the N protein of SARS-CoV Urbani is 0.2

Summary for this sequence, RRGPEQTQGNFGDQD : Binding of antibody 03-018 to looped/cyclic peptides of the N protein of SARS-CoV Urbani is 0.2

Summary for this sequence, RPQGLPNNTASWFTA : Binding of antibody 03-018 to looped/cyclic peptides of the N protein of SARS-CoV Urbani is 0.2

Summary for this sequence, RWYFYYLGTGPEASL : Binding of antibody 03-018 to looped/cyclic peptides of the N protein of SARS-CoV Urbani is 0.2

Summary for this sequence, KMKELSPRWYFYYLG : Binding of antibody 03-018 to looped/cyclic peptides of the N protein of SARS-CoV Urbani is 0.2

Summary for this sequence, PQGTTLPKGFYAEGS : Binding of antibody 03-018 to looped/cyclic peptides of the N protein of SARS-CoV Urbani is 0.2

Summary for this sequence, HGAIKLDDKDPQFKD : Binding of antibody 03-018 to looped/cyclic peptides of the N protein of SARS-CoV Urbani is 0.2

Summary for this sequence, LALLLLDRLNQLESK : Binding of antibody 03-018 to looped/cyclic peptides of the N protein of SARS-CoV Urbani is 0.2

Summary for this sequence, KEGIVWVATEGALNT : Binding of antibody 03-018 to looped/cyclic peptides of the N protein of SARS-CoV Urbani is 0.2

Summary for this sequence, KVSGKGQQQQGQTVT : Binding of antibody 03-018 to looped/cyclic peptides of the N protein of SARS-CoV Urbani is 0.2

Summary for this sequence, LTQHGKEELRFPRGQ : Binding of antibody 03-018 to looped/cyclic peptides of the N protein of SARS-CoV Urbani is 0.2

----------
# Tested on: rabbit serum obtained by immunizing a rabbit with the SARS-CoV strain Frankfurt 1
# Assay type: binding
# Set-up: unit not given here
valueType: Rabbit serum linear peptides
Lab note: jot the number down without any unit.

Completed entries (count: 5):
| sequenceInput | studyTarget | endpointResult |
| --- | --- | --- |
| SQRVGTDSGFAAYNR | rabbit serum obtained by immunizing a rabbit with the SARS-CoV strain Frankfurt 1 | 0.2 |
| LCALGKVLPFHRWHT | rabbit serum obtained by immunizing a rabbit with the SARS-CoV strain Frankfurt 1 | 0.7 |
| PKLFIRQEEVQQELY | rabbit serum obtained by immunizing a rabbit with the SARS-CoV strain Frankfurt 1 | 0.4 |
| SCELYHYQECVRGTT | rabbit serum obtained by immunizing a rabbit with the SARS-CoV strain Frankfurt 1 | 0.4 |
| QLLEQWNLVIGFLFL | rabbit serum obtained by immunizing a rabbit with the SARS-CoV strain Frankfurt 1 | 0.2 |

Summary for this sequence, DIKDLPKEITVATSR : Rabbit serum linear peptides is 0.2

Summary for this sequence, KDLPKEITVATSRTL : Rabbit serum linear peptides is 0.2

Summary for this sequence, KKNYSELDDEEPMEL : Rabbit serum linear peptides is 0.1

Summary for this sequence, TRPLMESELVIGAVI : Rabbit serum linear peptides is 0.2

Summary for this sequence, RYNTRGNTYSTAWLC : Rabbit serum linear peptides is 0.7

Summary for this sequence, GNYKLNTDHAGSNDN : Rabbit serum linear peptides is 0.0

----------
# Tested on: control sera (pooled serum of ten healthy LUMC hospital workers; commercial negative donor pooled serum from the Dutch bloodbank)
# Format: binding, human
# Design: unit not given here
Quick reference: Binding of Control serum Blood-bank to linear peptides of the listed items.
Lab note: jot the number down without any unit.

| sequenceInput | endpointResult |
| --- | --- |
| KIDNASPASTVHATA | 0.6 |

Summary for this sequence, GTTLPKGFYAEGSRG : Binding of Control serum Blood-bank to linear peptides is 0.6

Summary for this sequence, GSITAQPVKIDNASP : Binding of Control serum Blood-bank to linear peptides is 0.6
